TARGET_OR_SYSTEM: Beta-galactosidase (Aspergillus niger)
Sequence (P29853 whole entry): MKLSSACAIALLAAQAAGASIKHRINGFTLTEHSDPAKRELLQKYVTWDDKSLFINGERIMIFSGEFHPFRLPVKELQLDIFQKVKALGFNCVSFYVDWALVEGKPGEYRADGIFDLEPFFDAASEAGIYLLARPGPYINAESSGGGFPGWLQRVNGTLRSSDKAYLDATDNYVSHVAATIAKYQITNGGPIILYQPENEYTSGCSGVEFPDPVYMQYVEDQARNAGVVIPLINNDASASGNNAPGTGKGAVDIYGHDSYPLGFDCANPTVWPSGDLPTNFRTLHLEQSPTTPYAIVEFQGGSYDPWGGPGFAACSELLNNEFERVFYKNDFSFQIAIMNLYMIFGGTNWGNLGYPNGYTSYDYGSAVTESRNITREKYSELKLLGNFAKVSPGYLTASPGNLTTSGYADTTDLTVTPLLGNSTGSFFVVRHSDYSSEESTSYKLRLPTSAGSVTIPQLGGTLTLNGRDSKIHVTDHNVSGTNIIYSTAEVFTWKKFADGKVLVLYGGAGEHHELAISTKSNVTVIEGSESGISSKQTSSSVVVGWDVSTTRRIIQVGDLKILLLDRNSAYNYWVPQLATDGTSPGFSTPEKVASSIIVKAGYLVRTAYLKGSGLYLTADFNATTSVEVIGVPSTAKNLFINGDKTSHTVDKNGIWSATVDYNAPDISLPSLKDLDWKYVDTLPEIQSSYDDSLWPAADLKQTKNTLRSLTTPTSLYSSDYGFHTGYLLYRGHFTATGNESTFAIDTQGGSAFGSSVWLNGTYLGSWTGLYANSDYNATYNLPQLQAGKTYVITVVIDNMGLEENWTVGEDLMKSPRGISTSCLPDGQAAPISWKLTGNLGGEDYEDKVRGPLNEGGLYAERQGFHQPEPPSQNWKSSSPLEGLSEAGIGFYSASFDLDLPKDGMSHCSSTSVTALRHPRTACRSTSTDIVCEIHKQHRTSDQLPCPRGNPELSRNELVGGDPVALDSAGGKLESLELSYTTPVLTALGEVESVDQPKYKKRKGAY
Literature compilation of Ki measurements on Beta-galactosidase (Aspergillus niger).
Response body: numeric value in µM, unit text excluded.

Q) Item under review: OC(O)CC1NCC(O)C1O (stereo not drawn) . Reported Ki?
A) 200

Q) Item under review: `CCN(CC)C(=O)c1cc([C@H]2NC[C@@H](O)[C@H]2O)oc1C` . Reported Ki?
A) 30

Q) Item under review: `CC1(C)O[C@@H]2O[C@H]3C(CO)=NO[C@H]3[C@@H]2O1` . Reported Ki?
A) 18
